# Experiment Summary: In vivo pharmacokinetic experiment in rats
# Condition: male, rat, plasma, iv; SD rats, 5 mg/kg i.v.
Attribute Measured: clearance (mL/min/kg)
Report the value in mL/min/kg with no unit label.

Input line: Note clearance for the compound shown: Cl.N[C@]1(c2ccc(C(F)(F)F)cc2)CCC[C@H](O)C1=O [Compound 51]
Output line: 4.03

====

# Experiment Summary: In vivo pharmacokinetic experiment in rats
# Condition: male, rat, po; SD rats, 100 mg/kg p.o., plasma
Attribute Measured: half-life (h)
I only need the number, in h, no unit after it.

Input line: Look up half-life of `Cl.N[C@@]1(c2ccc(C(F)(F)F)cc2)CCC[C@@H](O)C1=O` and report it.
Output line: 4.86
